# Experimental target: SIK2 (Homo sapiens)
# Construct: purchased ThermoFisher Scientific PV4792
# Sequence (Q9H0K1 whole entry): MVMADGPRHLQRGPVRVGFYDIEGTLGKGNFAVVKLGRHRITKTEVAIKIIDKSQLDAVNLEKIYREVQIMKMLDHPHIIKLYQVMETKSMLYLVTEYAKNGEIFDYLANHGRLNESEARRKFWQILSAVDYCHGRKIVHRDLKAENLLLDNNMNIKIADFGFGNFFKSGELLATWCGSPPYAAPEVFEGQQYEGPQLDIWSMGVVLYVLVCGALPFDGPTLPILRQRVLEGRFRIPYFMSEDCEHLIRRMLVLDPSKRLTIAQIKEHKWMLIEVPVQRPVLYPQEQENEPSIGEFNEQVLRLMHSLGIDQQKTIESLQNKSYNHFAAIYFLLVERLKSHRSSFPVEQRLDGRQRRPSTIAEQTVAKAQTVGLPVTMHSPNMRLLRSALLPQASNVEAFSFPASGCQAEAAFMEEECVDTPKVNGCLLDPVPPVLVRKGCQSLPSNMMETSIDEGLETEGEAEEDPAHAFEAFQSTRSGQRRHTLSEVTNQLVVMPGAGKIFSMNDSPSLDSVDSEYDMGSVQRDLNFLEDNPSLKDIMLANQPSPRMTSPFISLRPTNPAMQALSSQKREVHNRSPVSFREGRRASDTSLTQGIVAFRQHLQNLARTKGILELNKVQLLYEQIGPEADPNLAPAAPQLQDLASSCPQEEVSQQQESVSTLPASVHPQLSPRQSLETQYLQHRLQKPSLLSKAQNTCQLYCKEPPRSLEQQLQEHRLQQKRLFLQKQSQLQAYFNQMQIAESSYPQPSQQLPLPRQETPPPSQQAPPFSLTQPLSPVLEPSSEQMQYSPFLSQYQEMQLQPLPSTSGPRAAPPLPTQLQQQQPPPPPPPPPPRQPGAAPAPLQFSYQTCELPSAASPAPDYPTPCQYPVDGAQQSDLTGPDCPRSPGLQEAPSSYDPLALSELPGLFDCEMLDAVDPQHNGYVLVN
# Measurement protocol: biochemical
# Measurement setup: 33P radioactive SIK kinase assay, AMARA peptide, 10 μM ATP
# Protocol: The principle of the ^33P radioactive kinase assay consists in measuring the incorporated ^33P into the substrate AMARA peptide when phosphorylated by SIK1, SIK2 or SIK3 using [^33P]-g-ATP, which correlates with kinase activity. […] After harvesting the kinase reactions, the filter plates are washed 6 times with phosphoric acid (75 mM). […] The top of the plates are sealed with TopSeal-A. Read-out is performed with a TopCount instrument (PerkinElmer Inc.).
In this section, each of the compounds is paired with its reported IC50.

Examples with their reported IC50 follow.
# Structure, Experimental target, IC50
rows = [
    ("COc1cc(-n2cnc3cc(-c4cnn(C)c4)ccc32)cc(OC)c1C(=O)NCC(F)F", "SIK2 (Homo sapiens)", "0.01 to 10 nM"),
    ("COc1cc(-n2cnc3cc(-c4conc4C)ccc32)cc(OC)c1C(=O)NCC(F)(F)F", "SIK2 (Homo sapiens)", "100 to 500 nM"),
    ("COc1cc(-n2cnc3cc(-c4cnoc4)ccc32)cc(OC)c1C(=O)NCC(F)(F)F", "SIK2 (Homo sapiens)", "10 to 100 nM"),
]

Give reported IC50 for CCn1cc(-c2cnc3c(c2)ncn3-c2cc(OC)c(C(=O)NCC(F)(F)F)c(OC)c2)cn1 (SIK2 (Homo sapiens))
10 to 100 nM
